Molecular target: T1, CRBN, Q96SW2;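 note: pooled lentiviral library of zinc finger degron-EGFP fusions in mCherry-positive Jurkat cells, FACS-sorted after compound exposure, with degron abundance counted by next-generation sequencing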
T1 chain: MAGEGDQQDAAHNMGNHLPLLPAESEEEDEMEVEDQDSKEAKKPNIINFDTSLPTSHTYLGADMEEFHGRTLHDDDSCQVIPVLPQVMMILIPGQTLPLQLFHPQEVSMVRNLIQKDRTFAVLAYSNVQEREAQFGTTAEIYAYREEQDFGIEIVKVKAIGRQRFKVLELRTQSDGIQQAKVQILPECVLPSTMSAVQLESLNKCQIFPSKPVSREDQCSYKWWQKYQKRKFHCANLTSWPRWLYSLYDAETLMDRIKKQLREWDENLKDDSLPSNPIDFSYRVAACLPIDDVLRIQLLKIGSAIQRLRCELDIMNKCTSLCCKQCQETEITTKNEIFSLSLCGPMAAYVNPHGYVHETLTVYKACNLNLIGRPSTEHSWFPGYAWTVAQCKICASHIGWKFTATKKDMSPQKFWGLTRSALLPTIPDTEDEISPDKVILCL
Assay: log2 fold change of degron read counts, EGFP-low vs EGFP+ sorted cells (limma voom), compound-induced degradation; higher = more compound-induced degradation of the degron-EGFP fusion; degrons are variants of IKZF1/3 zinc finger 2; compound dose not given here
Details: Jurkat; 18 h; compound: thalidomide
In all, about 8,300 sequences were measured (“log2 fold change of degron read counts, EGFP-low vs EGFP+ sorted cells (limma voom), compound-induced degradation”: median about -1.1, highest 2% from about 3.2 on). Shown is part of a subset that was picked to be rich in the highest values.

# sequence-code, log2 fold change of degron read counts
rows = [
    ("FCCEICGARFTQKGNLLRHIKL [46F_47C_49E_50I_52G_53A_54R_55F_67L_, Q9UKT9]", 3.08),
    ("LGCPICGFTCTQKGNLLRHIKL [46L_47G_49P_50I_52G_53F_54T_55C_67L_, Q9UKT9]", 1.36),
    ("FCCNQCGRRFTQKGNLLRHIKL [46F_47C_49N_50Q_52G_53R_54R_55F_67L_, Q9UKT9]", -1.82),
    ("FYCDVCGAQFTQKGNLLRHIKL [46F_47Y_49D_50V_52G_53A_54Q_55F_67L_, Q9UKT9]", -0.781),
    ("FWCDVCGAQFTQKGNLLRHIKL [46F_47W_49D_50V_52G_53A_54Q_55F_67L_, Q9UKT9]", -0.531),
    ("FVCDVCGAQFTQKGNLLRHIKL [46F_47V_49D_50V_52G_53A_54Q_55F_67L_, Q9UKT9]", 0.809),
    ("FCCNICGAPFTQKGNLLRHIKL [46F_47C_49N_50I_52G_53A_54P_55F_67L_, Q9UKT9]", 1.86),
    ("FGCNVCGAEFTQKGNLLRHIKL [46F_47G_49N_50V_52G_53A_54E_55F_67L_, Q9UKT9]", -0.925),
    ("FNCEICGARFTQKGNLLRHIKL [46F_47N_49E_50I_52G_53A_54R_55F_67L_, Q9UKT9]", 0.645),
    ("FTCEICGRVFTQKGNLLRHIKL [46F_47T_49E_50I_52G_53R_54V_55F_67L_, Q9UKT9]", -0.137),
    ("FLCDICGANFTQKGNLLRHIKL [46F_47L_49D_50I_52G_53A_54N_55F_67L_, Q9UKT9]", -0.528),
    ("FYCEICGRDFTQKGNLLRHIKL [46F_47Y_49E_50I_52G_53R_54D_55F_67L_, Q9UKT9]", -2.67),
    ("FHCDICGANFTQKGNLLRHIKL [46F_47H_49D_50I_52G_53A_54N_55F_67L_, Q9UKT9]", -2.82),
]
